# Tested on: OVCAR-5 ovarian
# Protocol notes: NCI tumour cell line growth inhibition, 48 h
For each entry below, report its TGI value.

Worked cases, TGI given:
Cc1ccc(Nc2nc3ccccc3c(=O)n2N)cc1    > 100 µM
COc1ccc(Cc2c(-c3ccc(C)cc3)n[nH]c(=O)c2C2C(=O)N(c3ccccc3)N=C2c2ccccc2)cc1 (stereo unspecified)    > 95.7 µM
O=c1[nH]ccc2c1ccn2C1CC(O)C(CO)O1 (stereo unspecified)    > 100 µM

Would you mind listing TGI for each of the following compounds?
1. CC(CO)CCNc1ncnc2c1ncn2CCC#N (stereo unspecified)
2. CC12CCCCC1C(=O)C2(Cl)Cl (stereo unspecified)
3. O=C(O)C1CCC(=O)N1C(=O)C(Cl)c1ccccc1 (stereo unspecified)

1. > 100 µM
2. 8.96 µM
3. > 100 µM
